Biological target: erythrocytes infected with P. falciparum field isolate 11019
Assay: flow cytometry, staining of IEs
Below, each entry is listed with its recorded % parasite recognition.
# number only, unit % dropped from output

I have this binder here, MGC1 (antibody) VH: EVQLVESGGGLVQPGGSLRLSCVASGFNFRKSWMGWVRQAPGKGLEWVANIREDGSESFYADSVKGRFTVSRDNAKKSLYLHINSLRAEDTAVYYCARDRFCNDDEIHRHGQEDLPRPSISAAEGTVIPLGSHVTFVCRGPVGVQTFRLEKDSRSIYNDTENVSQPSPSESEARFRIDSVSEGNAGLYRCVYYKAPKWSAQSDYLELLVKGQEVTWALFTSCGGDGEEPDYDMDVRGKGTTVTVSS VL: DIVMTQSPDSLAVSLGERATINCKSSQSVLYRSKNKNYLAWFQQKPGQPPKVLIYSTSTRASGVPDRFTGSGSGTDFTLTISSLQAEDVAVYYCLQYYITPYTFGQGTKLEIK , and I need its recorded % parasite recognition. 32.7

As a next step, examine the binder that follows.
Give its % parasite recognition value. Item: MGC2 (antibody) VH: EVQLVESGGGLVQPGGSLRLSCAASGFTFSNFWMGWVRQTPGKGLEWVANIKEDGSEKYYVDSVRGRFTISRDSAKNSLYLQMNSLRAEDTAVYYCVRERFCSNHIHKEEHLPRPSISPEPGTVITLGSHVTFVCRGPVGVQTFRLEKDSRSTYNDTEDVSQPSPSESEARFRIDSVSEGYAGLYRCLYYKPPKWSEQSDYLELLVKGDDVTWALYPSCGGDGEASDYNMDVWGKGTTVTVSS VL: DIQMTQSPSTLSASVGDRVTISCRASQRFSGWLAWYQQKPGKAPNLLIYKASPLAGGGPSRFSGSGSGTDFTLTISSLQPDDSATYYCQHYSNYSYTFGQGTKLEIR 11.9
